# Tested on: Escherichia coli TOP10
# assay-info: shrunken log2 fold change of peptide-encoding DNA abundance (4.5 h post-induction vs induction); higher = less antimicrobial activity (less host growth inhibition)
# measurement-setup: time post-induction: 4.5 h; library: site-saturation at positions 5, 18, 19, 20
Consider the following sequences; for each one, report its shrunken log2 fold change.
When you answer, write just the number.

## Task Quick check: shrunken log2 fold change of RRIRYRPPRLPRPRPRPFFYPRP ?
## Result -0.614

## Task // returns reported shrunken log2 fold change for input RRIRWRPPRLPRPRPRPAKYPRP
## Result -0.183

## Task What value of shrunken log2 fold change has been recorded for this entry: RRIRGRPPRLPRPRPRPIQLPRP
## Result 0.043

## Task Using the record for RRIRGRPPRLPRPRPRPLWRPRP , report its shrunken log2 fold change.
## Result 0.625

## Task Fill in the blank: the reported shrunken log2 fold change of RRIRLRPPRLPRPRPRPKKIPRP is ____.
## Result -0.104

## Task Give its shrunken log2 fold change value. Item: RRIRKRPPRLPRPRPRPTSSPRP
## Result 0.0586

## Task Which shrunken log2 fold change is listed for RRIRIRPPRLPRPRPRPAIWPRP ?
## Result 0.0492

## Task Dear colleague, I am looking for the recorded shrunken log2 fold change of the following sequence: RRIRYRPPRLPRPRPRPGWVPRP
## Result 0.0444

====

For each record, write down the corresponding shrunken log2 fold change.
# Test system: Escherichia coli TOP10
# assay-info: shrunken log2 fold change of peptide-encoding DNA abundance (4.5 h post-induction vs induction); higher = less antimicrobial activity (less host growth inhibition)
# measurement-setup: time post-induction: 4.5 h; library: site-saturation at positions 5, 18, 19, 20
Field format: numeric only.

## Task If you can, please state the reported shrunken log2 fold change value of RRIRTRPPRLPRPRPRPEMKPRP .
## Result 0.258

## Task Given the entry RRIRDRPPRLPRPRPRPKTWPRP , report its measured shrunken log2 fold change.
## Result 0.434

## Task Report shrunken log2 fold change for RRIRYRPPRLPRPRPRPMCCPRP please.
## Result -3.16

## Task Requested read-out: shrunken log2 fold change. Entry: RRIRYRPPRLPRPRPRPLYHPRP
## Result -1.11

## Task Given the entry RRIRVRPPRLPRPRPRPGGGPRP , report its measured shrunken log2 fold change.
## Result 0.695

## Task Give its shrunken log2 fold change value. Item: RRIRHRPPRLPRPRPRPMWTPRP
## Result -0.126

## Task Param item = RRIRSRPPRLPRPRPRPDPIPRP ; retrieve measured shrunken log2 fold change.
## Result -0.0376

## Task Item RRIRKRPPRLPRPRPRPRASPRP has what recorded shrunken log2 fold change?
## Result 0.675

====

# Tested on: Escherichia coli TOP10
# assay-info: shrunken log2 fold change of peptide-encoding DNA abundance (4.5 h post-induction vs induction); higher = less antimicrobial activity (less host growth inhibition)
# measurement-setup: time post-induction: 4.5 h; library: site-saturation at positions 5, 18, 19, 20
Please provide measured shrunken log2 fold change for the entries that follow.
Answer using only a numeral; do not append any unit.

## Task Can you look up shrunken log2 fold change on Escherichia coli TOP10 for RRIRWRPPRLPRPRPRPMYNPRP ?
## Result -0.387

## Task Look up shrunken log2 fold change with Escherichia coli TOP10 for this sequence: RRIRNRPPRLPRPRPRPWDNPRP
## Result -0.0545

## Task Please provide the recorded shrunken log2 fold change for RRIRKRPPRLPRPRPRPGYNPRP , tested on Escherichia coli TOP10.
## Result 0.178

## Task Form: Entry = RRIRCRPPRLPRPRPRPIAHPRP | System = Escherichia coli TOP10 | shrunken log2 fold change = ____
## Result -0.0801

## Task Provide value of shrunken log2 fold change for this record tested with Escherichia coli TOP10: RRIRRRPPRLPRPRPRPWMPPRP
## Result -0.217

## Task Observed shrunken log2 fold change on Escherichia coli TOP10 for RRIRTRPPRLPRPRPRPSQKPRP , please.
## Result 0.039

## Task Could you share what shrunken log2 fold change was measured for RRIRCRPPRLPRPRPRPDCYPRP , tested on Escherichia coli TOP10?
## Result -0.0924

## Task Escherichia coli TOP10 / shrunken log2 fold change / RRIRHRPPRLPRPRPRPRCNPRP : value?
## Result -0.331

## Task Provide value of shrunken log2 fold change for this record tested with Escherichia coli TOP10: RRIRQRPPRLPRPRPRPDFAPRP
## Result -0.0596

## Task For Escherichia coli TOP10, provide shrunken log2 fold change of RRIRTRPPRLPRPRPRPAMMPRP please.
## Result -0.109

## Task Find shrunken log2 fold change (Escherichia coli TOP10) for the entry RRIRSRPPRLPRPRPRPCYAPRP
## Result -0.478

## Task Lab note: need shrunken log2 fold change for RRIRHRPPRLPRPRPRPTMVPRP on Escherichia coli TOP10, anyone have it?
## Result -0.224

## Task Quick check: shrunken log2 fold change on Escherichia coli TOP10, item RRIRNRPPRLPRPRPRPMGWPRP ?
## Result -0.00822

## Task Form: Entry = RRIRLRPPRLPRPRPRPHYKPRP | System = Escherichia coli TOP10 | shrunken log2 fold change = ____
## Result -0.525

## Task Escherichia coli TOP10 / shrunken log2 fold change / RRIRIRPPRLPRPRPRPQCDPRP : value?
## Result -0.205

====

# Tested on: Escherichia coli TOP10
# assay-info: shrunken log2 fold change of peptide-encoding DNA abundance (4.5 h post-induction vs induction); higher = less antimicrobial activity (less host growth inhibition)
# measurement-setup: time post-induction: 4.5 h; library: site-saturation at positions 5, 18, 19, 20
value-kind: shrunken log2 fold change
Kindly provide the number alone.

## Task Entry RRIRSRPPRLPRPRPRPGIWPRP has what shrunken log2 fold change?
## Result 0.123

## Task Look up shrunken log2 fold change for this sequence: RRIRMRPPRLPRPRPRPFKEPRP
## Result -0.00865

## Task What does the data say about its shrunken log2 fold change? Entry: RRIRLRPPRLPRPRPRPDIPPRP
## Result -0.0741

## Task What does the data say about its shrunken log2 fold change? Entry: RRIRFRPPRLPRPRPRPQGEPRP
## Result 0.00441

## Task Could you share which shrunken log2 fold change value was measured for RRIRWRPPRLPRPRPRPGFKPRP ?
## Result -0.143

## Task For the sequence RRIRDRPPRLPRPRPRPKFYPRP , what shrunken log2 fold change is on record?
## Result 0.0101

## Task Given the entry RRIRVRPPRLPRPRPRPPQCPRP , report its measured shrunken log2 fold change.
## Result -0.143

## Task What does the record list as shrunken log2 fold change for RRIRHRPPRLPRPRPRPMKLPRP ?
## Result -0.254

## Task // query shrunken log2 fold change value for entry RRIRRRPPRLPRPRPRPRQNPRP
## Result 0.419

## Task Which shrunken log2 fold change value is on record for RRIRMRPPRLPRPRPRPYVRPRP ?
## Result -0.313

## Task So what does the record say about shrunken log2 fold change for RRIRSRPPRLPRPRPRPNPEPRP ?
## Result 0.0679

## Task If you can, please state the reported shrunken log2 fold change value of RRIRCRPPRLPRPRPRPDEDPRP .
## Result -0.0684

## Task Find the recorded shrunken log2 fold change belonging to RRIRWRPPRLPRPRPRPPEHPRP and report it.
## Result 0.544

## Task // shrunken log2 fold change lookup, key: RRIRQRPPRLPRPRPRPGCCPRP
## Result 0.202

## Task Please report the recorded shrunken log2 fold change for RRIRNRPPRLPRPRPRPNGMPRP .
## Result -0.00904

====

# Test system: Escherichia coli TOP10;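 further: peptides expressed intracellularly from a pBAD plasmid library in pooled LB shake-flask culture, induced with 0.3% L-arabinose, DNA abundance read by NGS, three biological replicates, DESeq2 with apeglm shrinkage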
# assay-info: shrunken log2 fold change of peptide-encoding DNA abundance (4.5 h post-induction vs induction); higher = less antimicrobial activity (less host growth inhibition)
# measurement-setup: time post-induction: 4.5 h; library: site-saturation at positions 5, 18, 19, 20
Please respond with reported shrunken log2 fold change for every item in the list.

## Task Name the reported shrunken log2 fold change value associated with the sequence RRIRCRPPRLPRPRPRPCILPRP
## Result -1.1

## Task What does the data say about its shrunken log2 fold change? Entry: RRIRMRPPRLPRPRPRPLVKPRP
## Result -0.174

## Task Fill blank: measured shrunken log2 fold change of the sequence RRIRARPPRLPRPRPRPWSEPRP is ____.
## Result 0.0573

## Task Bench note: what shrunken log2 fold change did RRIRIRPPRLPRPRPRPEPHPRP show?
## Result -0.0648

## Task Look at this sequence and give its reported shrunken log2 fold change. RRIRKRPPRLPRPRPRPTAMPRP
## Result 0.358

## Task Which shrunken log2 fold change value belongs to RRIRCRPPRLPRPRPRPPSYPRP ?
## Result -0.457

## Task Give its shrunken log2 fold change value. Item: RRIRTRPPRLPRPRPRPREFPRP
## Result 0.33

## Task Consider the sequence shown here: RRIRMRPPRLPRPRPRPKWTPRP What is its recorded shrunken log2 fold change?
## Result 0.0304

## Task Tell me the measured shrunken log2 fold change of RRIRERPPRLPRPRPRPSRTPRP , please.
## Result -0.111

## Task Entry under review: RRIRRRPPRLPRPRPRPKPAPRP . Reported shrunken log2 fold change?
## Result 0.347

## Task Requested field: shrunken log2 fold change. Item: RRIRQRPPRLPRPRPRPKVYPRP
## Result -0.177

## Task Any idea what shrunken log2 fold change was measured for RRIRERPPRLPRPRPRPQLCPRP ?
## Result 0.0651

## Task Given the entry RRIRCRPPRLPRPRPRPRRRPRP , report its measured shrunken log2 fold change.
## Result 0.496

## Task Fill in the blank: the reported shrunken log2 fold change of RRIRGRPPRLPRPRPRPFEEPRP is ____.
## Result 0.231

## Task Name the reported shrunken log2 fold change value associated with the sequence RRIRARPPRLPRPRPRPFYQPRP
## Result -0.00727
